Tested on: MDA-MB-435
Experiment: NCI tumour cell line growth inhibition, 48 h
Activity calls are given as the source filed them. Rule as the data show it: active = GI50 up to about 1.1 µM and inactive = higher.
Listing of entries alongside the reported GI50.

>>> readout_value("O=c1oc2ccccc2cc1-c1csc(Nc2ccc(F)cc2)n1")
"4.32 µM (inactive)"
>>> readout_value("CN(Cc1cnc2nc(N)nc(N)c2n1)c1ccc(C(=O)N[C@@H](CCC(=O)O)C(=O)O)cc1 [METHOTREXATE]")
"0.0341 µM (active)"
>>> readout_value("Cc1cccc(C(C)(C)C)c1NC(=O)/C(Cc1nc2ccc([N+](=O)[O-])cc2nc1O)=N\\NC(=O)C[N+](C)(C)C")
"> 100 µM (inactive)"

GET /value?item= Cc1cc(C)c(N[S+]([O-])c2ccc(Cl)cc2)c(C)c1 (stereo not given) &field=GI50 returns 51.5 µM (inactive)

GET /value?item= c1cc(C2N3CCCN2CC3)ccn1 (stereo not given) &field=GI50 returns 25.5 µM (inactive)
